Source of measurements: the supplement of paper PMC10065799

The following sequences are listed with their measured SH2 binding enrichment values.
- assayed.target: SHP2-C SH2
- procedure.summary: SH2 binding enrichment of the phosphorylated peptide, bacterial display (enrichment ratio); higher = better substrate or ligand; peptides without Tyr show the background

{"columns": ["sequence.entry", "assayed.target", "quantity.name", "test.result"],
 "data": [
  ["GEEIKYMLWLL [OTC_Y55_S60L]", "SHP2-C SH2", "SH2 binding enrichment", 1.01],
  ["VVQGIYGYHHY [UFSP2_Y285]", "SHP2-C SH2", "SH2 binding enrichment", 1.11],
  ["LLVVLYKFRCF [PSEN1_Y154_Y159F_YF]", "SHP2-C SH2", "SH2 binding enrichment", 1.92]
]}

Lab note: sequence CDKEYYSVHNK [MET_Y1235_Y1230C] tested on SHP2-C SH2; recorded SH2 binding enrichment was 0.553

Lab note: sequence VMAALYGRLFE [BTD_Y536_T532M_YF] tested on SHP2-C SH2; recorded SH2 binding enrichment was 1.44

Lab note: sequence KGEDFYFVTCH [FHL1_Y149_C150Y_YF] tested on SHP2-C SH2; recorded SH2 binding enrichment was 0.345

Lab note: sequence PGVNYYFRVSA tested on SHP2-C SH2; recorded SH2 binding enrichment was 1.64

Lab note: sequence IRTIDYRFTVW [IDS_Y497_YF] tested on SHP2-C SH2; recorded SH2 binding enrichment was 0.868

Lab note: sequence SWSTSYSGFRF [NKAPL_Y91_YF] tested on SHP2-C SH2; recorded SH2 binding enrichment was 1.55

Lab note: sequence LSSETYVKSYT [F5_Y2149_M2148T] tested on SHP2-C SH2; recorded SH2 binding enrichment was 0.818

Lab note: sequence ALAAPYVLFPG [CEFIP_Y1332_YF] tested on SHP2-C SH2; recorded SH2 binding enrichment was 1.21

Lab note: sequence GYEEAYSVSKK [PAFAH1B1_Y28_F31S] tested on SHP2-C SH2; recorded SH2 binding enrichment was 0.796

Lab note: sequence VLTSKHRGGGG [HBA1_Y141_Y141H] tested on SHP2-C SH2; recorded SH2 binding enrichment was 0.751

Lab note: sequence PLDGEYFSLQI [TP53_Y327_T329S] tested on SHP2-C SH2; recorded SH2 binding enrichment was 0.836

Lab note: sequence KSLFHYRQYSA [CPS1_Y1491] tested on SHP2-C SH2; recorded SH2 binding enrichment was 0.521

---

The following sequences are listed with their measured phosphorylation enrichment values.
- assayed.target: Jak2 (UniProt O60674)
- Sequence (O60674 whole entry, looked up): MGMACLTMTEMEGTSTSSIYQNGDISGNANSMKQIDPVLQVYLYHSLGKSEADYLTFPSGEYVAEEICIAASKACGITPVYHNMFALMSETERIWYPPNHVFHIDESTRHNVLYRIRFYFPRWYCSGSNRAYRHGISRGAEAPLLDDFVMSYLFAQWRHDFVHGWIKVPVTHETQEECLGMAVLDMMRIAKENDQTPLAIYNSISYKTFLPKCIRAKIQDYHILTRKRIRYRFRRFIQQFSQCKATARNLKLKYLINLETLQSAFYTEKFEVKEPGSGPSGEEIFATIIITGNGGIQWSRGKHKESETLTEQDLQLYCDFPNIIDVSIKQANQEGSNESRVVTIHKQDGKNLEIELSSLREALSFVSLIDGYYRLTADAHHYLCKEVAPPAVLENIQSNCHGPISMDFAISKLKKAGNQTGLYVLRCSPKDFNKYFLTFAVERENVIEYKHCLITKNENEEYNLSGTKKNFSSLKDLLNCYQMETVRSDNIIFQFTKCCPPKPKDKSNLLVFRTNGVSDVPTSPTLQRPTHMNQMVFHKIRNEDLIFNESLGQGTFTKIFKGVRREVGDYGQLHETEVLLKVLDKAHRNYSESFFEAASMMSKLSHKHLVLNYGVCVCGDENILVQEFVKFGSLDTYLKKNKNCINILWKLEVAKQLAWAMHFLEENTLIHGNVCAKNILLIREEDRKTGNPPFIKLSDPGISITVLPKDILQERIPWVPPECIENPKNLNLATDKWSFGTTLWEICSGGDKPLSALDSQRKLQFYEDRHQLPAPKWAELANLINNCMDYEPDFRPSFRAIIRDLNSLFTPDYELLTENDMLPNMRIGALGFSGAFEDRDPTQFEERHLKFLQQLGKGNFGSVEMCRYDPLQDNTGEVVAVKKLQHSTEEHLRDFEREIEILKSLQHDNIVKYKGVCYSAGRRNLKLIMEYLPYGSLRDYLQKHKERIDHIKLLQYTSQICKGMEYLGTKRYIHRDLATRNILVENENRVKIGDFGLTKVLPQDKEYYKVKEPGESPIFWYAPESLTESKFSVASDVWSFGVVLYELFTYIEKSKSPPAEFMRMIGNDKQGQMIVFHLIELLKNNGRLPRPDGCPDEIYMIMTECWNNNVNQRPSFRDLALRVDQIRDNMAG
- procedure.summary: phosphorylation enrichment, bacterial display (enrichment ratio); higher = better substrate or ligand; peptides without Tyr show the background
// return a plain number; no unit text

The recorded phosphorylation enrichment for entry PVQAAYQKVVD [HBB_Y131_A136D] equals 0.577

The recorded phosphorylation enrichment for entry DCPASYKKKSM [PDGFRA_Y768_R764C] equals 0.168

The recorded phosphorylation enrichment for entry SHISGYATLRR [RAPH1_Y1226] equals 0.628

The recorded phosphorylation enrichment for entry TRSYKYLLLSM [NF1_Y491] equals 0.887

The recorded phosphorylation enrichment for entry RKMSSYAFFVQ [HMGB1_Y16_G11R] equals 0.755

The recorded phosphorylation enrichment for entry SVNCTYSPALN [TP53_Y126_T123N] equals 0.77

The recorded phosphorylation enrichment for entry TSLAQYDSNSK [BMX_Y216] equals 0.579

The recorded phosphorylation enrichment for entry ENGPFYASFPP [GDAP2_Y488_T489A_YF] equals 0.951

The recorded phosphorylation enrichment for entry VEKEKYVSYIS [JMJD1C_Y596_M591V] equals 0.866

The recorded phosphorylation enrichment for entry APSHAYHGGVL [ANO1_Y981] equals 0.496

The recorded phosphorylation enrichment for entry SWSTSYSGYRY [NKAPL_Y91] equals 0.741

The recorded phosphorylation enrichment for entry MEFLPYGSLRD [JAK2_Y934_YF] equals 0.798

---

- assayed.target: EPHB1 (UniProt P54762)
- Sequence (P54762 whole entry, looked up): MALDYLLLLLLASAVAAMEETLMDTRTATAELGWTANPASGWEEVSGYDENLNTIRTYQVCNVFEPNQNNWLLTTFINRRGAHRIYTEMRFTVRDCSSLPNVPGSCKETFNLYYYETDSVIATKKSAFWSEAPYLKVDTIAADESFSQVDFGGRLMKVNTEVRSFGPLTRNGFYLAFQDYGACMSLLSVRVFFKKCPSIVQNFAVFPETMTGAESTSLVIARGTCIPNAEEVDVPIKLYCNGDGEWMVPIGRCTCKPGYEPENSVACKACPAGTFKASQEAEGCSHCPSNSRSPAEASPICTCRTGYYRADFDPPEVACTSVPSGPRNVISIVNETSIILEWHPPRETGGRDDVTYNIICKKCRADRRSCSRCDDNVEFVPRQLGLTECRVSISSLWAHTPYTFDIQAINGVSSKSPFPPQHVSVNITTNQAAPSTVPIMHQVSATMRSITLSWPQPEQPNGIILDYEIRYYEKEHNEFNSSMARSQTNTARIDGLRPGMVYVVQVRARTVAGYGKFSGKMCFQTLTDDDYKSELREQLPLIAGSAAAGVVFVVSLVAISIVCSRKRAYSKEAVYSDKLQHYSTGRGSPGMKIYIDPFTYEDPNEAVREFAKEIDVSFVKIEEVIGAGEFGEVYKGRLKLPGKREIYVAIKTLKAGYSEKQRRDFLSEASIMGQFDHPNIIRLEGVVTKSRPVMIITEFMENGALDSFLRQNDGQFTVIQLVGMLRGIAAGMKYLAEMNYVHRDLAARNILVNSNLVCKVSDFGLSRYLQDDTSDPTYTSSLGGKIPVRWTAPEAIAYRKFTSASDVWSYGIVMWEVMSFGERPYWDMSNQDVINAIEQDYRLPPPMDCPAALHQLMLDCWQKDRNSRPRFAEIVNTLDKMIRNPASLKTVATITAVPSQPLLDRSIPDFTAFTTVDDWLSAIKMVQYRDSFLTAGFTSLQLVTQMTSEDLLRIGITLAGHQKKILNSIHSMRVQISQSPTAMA
- procedure.summary: phosphorylation enrichment, bacterial display (enrichment ratio); higher = better substrate or ligand; peptides without Tyr show the background
I would appreciate it if you labelled entries satisfied when phosphorylation enrichment is 0.5 or higher, otherwise not satisfied.

Below are worked cases with known answers.
{"columns": ["sequence.entry", "label.class"],
 "data": [
  ["IRTIDYRFTVW [IDS_Y497_YF]", "satisfied"],
  ["SQSKGYRPKLY [SIPA1L3_Y1376_G1371S]", "not satisfied"],
  ["SEKVVYRRFTE [NCF1_Y41]", "not satisfied"],
  ["GYKVRYATGSI [FGFR1_Y210_W213G]", "satisfied"],
  ["DAKTIYDFTDT [PDK1_Y136_A134T]", "satisfied"],
  ["LLPNAYIFVVQ [L1CAM_Y418_A415P_YF]", "satisfied"],
  ["LEEFQYIGELQ [MSH2_Y856_S860L]", "satisfied"],
  ["RHPFFYAPELL [ALB_Y174_YF]", "satisfied"]
]}

## Task Decide: phosphorylation enrichment of VFFGSYSCPFG [NKAP_Y104_R106C_YF] >= 0.5?
## Result satisfied

## Task Decide: phosphorylation enrichment of GCRSKSVGLWG [KCNQ1_Y184_Y184S] >= 0.5?
## Result not satisfied

## Task Decide: phosphorylation enrichment of LHRAHYDLCHT [AHSG_Y314_R317C] >= 0.5?
## Result satisfied

---

- assayed.target: FGFR3 (UniProt P22607)
- Sequence (P22607 whole entry, looked up): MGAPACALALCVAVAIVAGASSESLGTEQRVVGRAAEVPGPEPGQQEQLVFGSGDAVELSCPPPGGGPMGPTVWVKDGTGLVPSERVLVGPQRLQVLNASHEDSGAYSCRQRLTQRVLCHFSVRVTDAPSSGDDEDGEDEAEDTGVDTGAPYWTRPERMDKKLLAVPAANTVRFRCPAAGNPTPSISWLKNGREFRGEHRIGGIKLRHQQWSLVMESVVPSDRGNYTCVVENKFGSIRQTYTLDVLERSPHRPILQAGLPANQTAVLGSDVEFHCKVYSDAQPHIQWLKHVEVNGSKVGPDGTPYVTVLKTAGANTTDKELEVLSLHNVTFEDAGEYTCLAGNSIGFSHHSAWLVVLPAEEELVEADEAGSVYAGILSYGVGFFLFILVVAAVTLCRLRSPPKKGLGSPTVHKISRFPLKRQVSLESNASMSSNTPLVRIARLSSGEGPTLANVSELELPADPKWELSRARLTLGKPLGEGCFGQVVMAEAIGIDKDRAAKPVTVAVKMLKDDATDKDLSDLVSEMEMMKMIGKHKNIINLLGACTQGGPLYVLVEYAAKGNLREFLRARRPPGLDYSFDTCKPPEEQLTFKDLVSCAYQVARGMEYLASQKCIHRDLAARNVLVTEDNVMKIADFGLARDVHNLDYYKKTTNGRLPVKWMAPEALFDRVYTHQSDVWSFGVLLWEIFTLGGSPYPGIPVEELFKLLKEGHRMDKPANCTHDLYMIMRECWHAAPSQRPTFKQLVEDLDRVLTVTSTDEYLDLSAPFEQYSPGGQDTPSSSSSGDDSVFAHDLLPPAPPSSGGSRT
- procedure.summary: phosphorylation enrichment, bacterial display (enrichment ratio); higher = better substrate or ligand; peptides without Tyr show the background
quantity.name: phosphorylation enrichment

{"columns": ["sequence.entry", "quantity.name", "test.result"],
 "data": [
  ["RIDRKYKKVRF [F8_Y442_G439D]", "phosphorylation enrichment", 0.922],
  ["QDGFSYLSRQM [LDLR_Y847_P848L_YF]", "phosphorylation enrichment", 0.995],
  ["SVNCTYSPALN [TP53_Y126_T123N]", "phosphorylation enrichment", 0.725],
  ["VLTSKHRGGGG [HBA1_Y141_Y141H]", "phosphorylation enrichment", 0.419],
  ["WAMPAYNRSKL [WWOX_Y293_L291P]", "phosphorylation enrichment", 0.324],
  ["KKARAYGPGIE [FLNA_Y287]", "phosphorylation enrichment", 0.343]
]}

The recorded phosphorylation enrichment for entry EARRVYGDIIF [ALDH5A1_Y175_H180Y_YF] equals 0.578

The recorded phosphorylation enrichment for entry SIKDKYVTALY [KCNH2_Y611] equals 0.472

The recorded phosphorylation enrichment for entry GFCSWYRGWAP [TIMP3_Y195_YF] equals 0.813

The recorded phosphorylation enrichment for entry CTTIHYNDMCN [TP53_Y234_Y236D] equals 0.539

---

- assayed.target: c-Src SH2
- procedure.summary: SH2 binding enrichment of the phosphorylated peptide, bacterial display (enrichment ratio); higher = better substrate or ligand; peptides without Tyr show the background
quantity.name: SH2 binding enrichment

# annotated cases, reported SH2 binding enrichment shown
{"columns": ["sequence.entry", "assayed.target", "quantity.name", "test.result"],
 "data": [
  ["DVQNAYDSNHC [ZFYVE16_Y36]", "c-Src SH2", "SH2 binding enrichment", 0.644],
  ["RHFTGCRIELQ [INSR_Y818_Y818C]", "c-Src SH2", "SH2 binding enrichment", 0.714],
  ["ENGPFYASFPP [GDAP2_Y488_T489A_YF]", "c-Src SH2", "SH2 binding enrichment", 0.744],
  ["NDFGNYNQQPS [HNRNPA2B1_Y306]", "c-Src SH2", "SH2 binding enrichment", 0.382],
  ["CPPKVYELMIA [ABL2_Y515_R519I]", "c-Src SH2", "SH2 binding enrichment", 1.44]
]}

The recorded SH2 binding enrichment for entry YKGKNYKPLDL [RPL35_Y78_K77N] equals 0.516

The recorded SH2 binding enrichment for entry LSSEMYVKSYT [F5_Y2149] equals 0.479

---

- assayed.target: MERTK (UniProt Q12866)
- Sequence (Q12866 whole entry, looked up): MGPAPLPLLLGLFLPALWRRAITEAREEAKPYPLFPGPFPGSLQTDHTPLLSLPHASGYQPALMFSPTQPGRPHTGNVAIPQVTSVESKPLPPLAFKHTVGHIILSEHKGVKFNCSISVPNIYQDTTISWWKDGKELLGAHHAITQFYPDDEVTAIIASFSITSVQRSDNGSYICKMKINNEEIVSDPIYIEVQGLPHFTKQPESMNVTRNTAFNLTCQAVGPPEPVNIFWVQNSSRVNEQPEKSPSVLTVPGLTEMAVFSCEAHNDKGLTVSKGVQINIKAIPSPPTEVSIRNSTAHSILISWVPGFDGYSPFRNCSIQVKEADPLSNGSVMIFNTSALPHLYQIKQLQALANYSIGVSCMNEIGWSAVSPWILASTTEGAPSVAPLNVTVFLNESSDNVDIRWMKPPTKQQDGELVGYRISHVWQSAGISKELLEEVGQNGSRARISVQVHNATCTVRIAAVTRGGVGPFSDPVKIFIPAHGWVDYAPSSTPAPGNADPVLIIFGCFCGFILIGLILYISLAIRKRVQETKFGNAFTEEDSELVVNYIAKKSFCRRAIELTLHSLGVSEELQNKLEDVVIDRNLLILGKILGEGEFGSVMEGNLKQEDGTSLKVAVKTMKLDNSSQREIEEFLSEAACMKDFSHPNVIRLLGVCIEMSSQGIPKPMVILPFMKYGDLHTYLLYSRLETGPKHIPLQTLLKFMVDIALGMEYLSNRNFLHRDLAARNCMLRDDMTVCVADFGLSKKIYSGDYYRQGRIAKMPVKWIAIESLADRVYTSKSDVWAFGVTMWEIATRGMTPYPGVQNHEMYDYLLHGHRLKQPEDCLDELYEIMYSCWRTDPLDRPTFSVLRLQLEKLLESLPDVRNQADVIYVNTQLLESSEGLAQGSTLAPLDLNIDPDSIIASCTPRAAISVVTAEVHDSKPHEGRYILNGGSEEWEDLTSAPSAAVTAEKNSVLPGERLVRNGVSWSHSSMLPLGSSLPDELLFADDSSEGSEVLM
- procedure.summary: phosphorylation enrichment, bacterial display (enrichment ratio); higher = better substrate or ligand; peptides without Tyr show the background
quantity.name: phosphorylation enrichment
// return a plain number; no unit text

{"columns": ["sequence.entry", "phosphorylation enrichment"],
 "data": [
  ["SQSKGYRPKLY [SIPA1L3_Y1376_G1371S]", 0.51],
  ["QQLQGYIPSNY [FRK_Y99]", 0.475],
  ["EFAAGYNVKFD [GPX4_Y123]", 0.461],
  ["LLVVLYKFRCF [PSEN1_Y154_Y159F_YF]", 1.03],
  ["TLSGIYQFNIA [FOXL2_Y81_I84N_YF]", 5.39]
]}

Lab note: sequence ENGPFYASFPP [GDAP2_Y488_T489A_YF] tested on MERTK (UniProt Q12866); recorded phosphorylation enrichment was 11.5

Lab note: sequence FQKDVYDIPPS [NEDD9_Y177_YF] tested on MERTK (UniProt Q12866); recorded phosphorylation enrichment was 7.04

Lab note: sequence SAEKAYHEQLS [TUBA1A_Y282] tested on MERTK (UniProt Q12866); recorded phosphorylation enrichment was 0.418

Lab note: sequence EEALYYLTRVE [SET_Y119_H118Y] tested on MERTK (UniProt Q12866); recorded phosphorylation enrichment was 6.68
